// reported Kp uu at 0.25 h per item
measurementNotes: Unbound brain to plasma concentration ratio in Sprague-Dawley rat at 0.2 mg/kg, iv measured for 0.25 hrs
Format: ADME, organism-based
conditionContext: brain and plasma, read-out: K(p,uu,brain)
reportedEndpoint: Kp uu at 0.25 h

>  <smilesRecord>
Cc1nnc2ccc(C(=O)NC3CN(c4ncc(F)cc4Cl)C3)cc2c1C

>  <qualifier>
=

>  <measValue>
0.29

$$$$
>  <smilesRecord>
Cc1nnc2ccc(C(=O)NC3CN(c4ncc(C#N)cc4Cl)C3)cc2c1C

>  <qualifier>
=

>  <measValue>
0.21

$$$$
>  <smilesRecord>
Cc1nnc2ccc(C(=O)NC3CN(c4ncc(Cl)cc4F)C3)cc2c1C

>  <qualifier>
=

>  <measValue>
0.09

$$$$
>  <smilesRecord>
Cc1nnc2ccc(C(=O)NC3CN(c4cc(Cl)ncc4Cl)C3)cc2c1C

>  <qualifier>
=

>  <measValue>
0.06

$$$$
>  <smilesRecord>
Cc1nnc2ccc(C(=O)NC3CN(c4ccc(F)c(F)c4)C3)cc2c1C

>  <qualifier>
<

>  <measValue>
0.56

$$$$
>  <smilesRecord>
COc1cc(N2CC(NC(=O)c3ccc4nnc(C)c(C)c4c3)C2)c(Cl)cn1

>  <qualifier>
=

>  <measValue>
0.02

$$$$
